Settings: buffer; pH 7.4; 200.0 µM
test_readout: log10 of solubility kinetic (log10 of the value in µg/mL)
Hello, just confirming the data are log10 of solubility kinetic with units of µg/mL.

{"columns": ["molecule", "reading"],
 "data": [
  ["CNC(=O)c1cc2c(s1)-c1ccccc1CC2", 0.72]
]}

For each of the items listed, what is its log10 of solubility kinetic?
1. Cl.c1coc(C2=NCCc3ccccc32)c1
2. Cc1cc(C(=O)N2CCC(Cc3ccccc3)CC2)no1

Response line:
1.45
1.56

For each of the items listed, what is its log10 of solubility kinetic?
1. O=c1[nH]cccc1-c1nc2ccccc2n1Cc1cccc(Cl)c1
2. CC(=O)c1c(C)[nH]c(C(=O)CSc2ccc(F)cc2)c1C

Response line:
0.15
0.40

For each of the items listed, what is its log10 of solubility kinetic?
1. CC(=O)N1CCN(Cc2nc3cc([N+](=O)[O-])ccc3n2C)CC1
2. COc1cc2c(cc1OC)-c1cc(Nc3ccc(F)cc3)nc(=O)n1CC2
3. O=C(COC(=O)c1cccs1)Nc1cccc(S(=O)(=O)N2CCCCC2)c1

Response line:
[1.65, 0.32, 0.98]

For each of the items listed, what is its log10 of solubility kinetic?
1. COc1ccc(NC(=O)c2ccc(NC(=O)COC(=O)c3cnc(C)cn3)cc2)cc1
2. CCCCc1nc2sc3c(c2c(=O)[nH]1)CC(C)(C)OC3
3. CCC(c1ccc(C)cc1)N1C(=O)C2C3CCC(O3)C2C1=O (centres undefined)
4. CCN(c1ccccc1)S(=O)(=O)c1ccc(C(=O)NC2CCN(Cc3ccccc3)CC2)cc1
5. CC(C(=O)N1CCCC1)N(C)CC(=O)Nc1cccc(F)c1 (centres undefined)
6. CC1CCN(S(=O)(=O)c2ccc3c(c2)oc(=O)n3C)CC1
7. O=C(COc1ccccc1)NS(=O)(=O)c1ccccc1

Response line:
1: 0.96; 2: 0.36; 3: 1.61; 4: 1.68; 5: 1.57; 6: 0.48; 7: 1.58
